These entries and their values trace back to paper PMC7049616.

Assay: Pharmacokinetics study
Assay type: in vivo, Sprague–Dawley rats
Conditions: male, Sprague-Dawley, rat, plasma, oral, 10 mg/kg
valueType: bioavailability (%)

| compound | unitAnnotation | valueObserved |
| --- | --- | --- |
| CCN(CC)CCNC(=O)c1c(C)[nH]c(/C=C2\C(=O)Nc3ccc(F)cc32)c1C [Sunitinib] | % | 75.7 |

----------
Assay: Pharmacokinetics study
Format: in vivo, Sprague–Dawley rats
Details: male, Sprague-Dawley, rat, plasma, iv, 1 mg/kg

| molecule | unitAnnotation | MRT last |
| --- | --- | --- |
| CCN(CC)CCNC(=O)c1c(C)[nH]c(/C=C2\C(=O)Nc3ccc(F)cc32)c1C [Sunitinib] | min | 58.8 |

----------
Experiment: Pharmacokinetics study
Type: in vivo, Sprague–Dawley rats
Settings: male, Sprague-Dawley, rat, plasma, po, 10 mg/kg
valueType: half-life (h)

| chemicalString | valueType | valueObserved |
| --- | --- | --- |
| CCN(CC)CCNC(=O)c1c(C)[nH]c(/C=C2\C(=O)Nc3ccc(F)cc32)c1C | half-life | 1.38 |

----------
Assay: Pharmacokinetics study
Assay type: in vivo, Sprague–Dawley rats
Conditions: male, Sprague-Dawley, rat, plasma, po, 10 mg/kg

| compound | MRT last (h) |
| --- | --- |
| CCN(CC)CCNC(=O)c1c(C)[nH]c(/C=C2\C(=O)Nc3ccc(F)cc32)c1C [Sunitinib] | 7.63 |

----------
Experiment: Pharmacokinetics study
Assay type: in vivo, Sprague–Dawley rats
Conditions: male, Sprague-Dawley, rat, plasma, po, 10 mg/kg

| molecule | AUC(0-inf) |
| --- | --- |
| CCN(CC)CCNC(=O)c1c(C)[nH]c(/C=C2\C(=O)Nc3ccc(F)cc32)c1C [Sunitinib] | 1100 ng·h/mL |

----------
Test: Pharmacokinetics study
Format: in vivo, Sprague–Dawley rats
Details: male, Sprague-Dawley, rat, plasma, iv, 1 mg/kg

| chemicalString | unitAnnotation | Cmax |
| --- | --- | --- |
| CCN(CC)CCNC(=O)c1c(C)[nH]c(/C=C2\C(=O)Nc3ccc(F)cc32)c1C | ng/mL | 236 |

----------
Experiment: Pharmacokinetics study
Assay type: in vivo, Sprague–Dawley rats
Conditions: male, Sprague-Dawley, rat, plasma, iv, 1 mg/kg
valueType: Tmax (min)

| compound | valueObserved |
| --- | --- |
| CCN(CC)CCNC(=O)c1c(C)[nH]c(/C=C2\C(=O)Nc3ccc(F)cc32)c1C [Sunitinib] | 19.8 |

----------
Assay: Pharmacokinetics study
Format: in vivo, Sprague–Dawley rats
Settings: male, Sprague-Dawley, rat, plasma, po, 10 mg/kg
valueType: Tmax

| compound | valueType | valueObserved |
| --- | --- | --- |
| CCN(CC)CCNC(=O)c1c(C)[nH]c(/C=C2\C(=O)Nc3ccc(F)cc32)c1C [Sunitinib] | Tmax | 1.25 h |

----------
Test: Pharmacokinetics study
Format: in vivo, Sprague–Dawley rats
Details: male, Sprague-Dawley, rat, plasma, iv, 1 mg/kg

| chemicalString | AUC(0-t), ng·h/mL |
| --- | --- |
| CCN(CC)CCNC(=O)c1c(C)[nH]c(/C=C2\C(=O)Nc3ccc(F)cc32)c1C | 143 |
